Assay: in vitro
Conditions: rat, gh3-tre-luc cells, AC50 (uM) modified / 1000, Tox21_110001=Tox21_112815; viability, 1 nM T3 present, 24 h
Non-standard residues stand in square brackets, D forms with d. Residues, ends and D or L forms follow the SMILES beside them. pGlu = O=C1CC[C@@H](C(=O)O)N1
reported metric: CC50 at 24 h

Please fill in: CC50 at 24 h reported for CC[C@H](C)[C@H](NC(=O)[C@H](Cc1ccccc1)NC(=O)[C@H](C)NC(=O)[C@H](CC(=O)O)NC(=O)[C@H](CCCCN)NC(=O)[C@H](CO)NC(=O)[C@@H]1CCCN1C(=O)[C@@H]1CCC(=O)N1)C(=O)NCC(=O)N[C@@H](CC(C)C)C(=O)N[C@@H](CCSC)C(N)=O [Eledoisin] ([pGlu]PSKDAFIGLM-NH2) = > 50 µM
